Attribution: patent US20260015350A1

test system: KRas-mediated phosphorylation of ERK in MKN1 cells; assay: Inhibition of KRas-mediated phosphorylation of ERK (Cisbio HTRF pERK), MKN1 cells; type: cell-based; conditions: Homo sapiens, MKN-1
Recorded Endpoint: IC50 (nM)

A: CCc1c(F)ccc2cc(O)cc(-c3ncc4c(N5CC6CCC(C5)C6C(N)=O)nc(OC[C@@]56CCCN5C[C@H](F)C6)nc4c3F)c12 (stereo partly drawn)
B: CCc1c(F)ccc2cc(O)cc(-c3ncc4c(N5CC6CCC(C(N)=O)(C6)C5)nc(OC[C@@]56CCCN5C[C@H](F)C6)nc4c3F)c12 (stereo partly drawn)
C: CCc1cccc2cc3[nH]ncc3c(-c3ncc4c(N5CCCC6(CNC(=O)N6)C5)nc(OC[C@@]56CCCN5C[C@H](F)C6)nc4c3F)c12 (stereo partly drawn)
Request: With regard to IC50, arrange the entries in ascending order, please. List the labels, following the order given in the request.
Response: A, B, C
